tested on: DU-145 prostate; assay: NCI tumour cell line growth inhibition, 48 h
MEASURED_ATTRIBUTE: TGI

Please indicate recorded TGI of CCOC(=O)c1c(C)nc2c3ccccc3c(C#N)c(C)n12 measured with DU-145 prostate.
> 100 µM

---
Please indicate recorded TGI of Cc1cc(O)c(/C=N/C(=S)NCc2ccccc2)c(=O)o1 measured with DU-145 prostate.
> 100 µM

Please indicate recorded TGI of NC1=NCC(CN2CCOCC2)O1 (stereo not given) measured with DU-145 prostate.
> 100 µM

Please indicate recorded TGI of O=C(O)/C=C(/C(=O)O)C12CCN3CC4=CCOC5CC(=O)NC1C5C4CC32 (stereo not given) measured with DU-145 prostate.
> 100 µM

Please indicate recorded TGI of CC(=O)[C@@]12O[C@@H]1CC1C3CCC4=CC(O)CCC4(C)C3CCC12C (stereo not given in full) measured with DU-145 prostate.
31.8 µM

Please indicate recorded TGI of O=C(/C=C/c1ccc2c(c1)OCO2)CC(=O)C(=O)c1c[nH]c2ccccc12 measured with DU-145 prostate.
> 100 µM

----------
system: NCI/ADR-RES ovarian; experiment: NCI tumour cell line growth inhibition, 48 h
MEASURED_ATTRIBUTE: TGI

Answered examples (4):
Give a short answer stating reported TGI for COc1ccc(NC(=O)CC(=O)N2N=C(N3c4ccccc4Sc4ccccc43)CC2c2ccccc2)cc1 (stereo not given) .
> 100 µM

Give a short answer stating reported TGI for O=C(/C=C/c1ccncc1)c1cc(Cl)ccc1O .
66.4 µM

Give a short answer stating reported TGI for Cc1cc(I)cc(CN(C)CCCN2CCCCC2)c1O .
59 µM

Give a short answer stating reported TGI for [O-][n+]1ccccc1Sc1nc(Sc2cccc[n+]2[O-])nc(Sc2cccc[n+]2[O-])n1 .
29.1 µM

---
Give a short answer stating reported TGI for CCCCC(C(=O)NCCNC(=O)CCC(=O)N(C)O)C(=O)NCCNC(=O)CCC(=O)N(C)O .
> 100 µM

Give a short answer stating reported TGI for COc1cc(NCc2ccc3oc(=O)c(-c4ccccc4)nc3c2)cc(OC)c1OC .
> 10 µM

Give a short answer stating reported TGI for COc1cccc(CCCNC(=O)Cc2cc(OC)c(OC)cc2CO)c1 .
> 100 µM

Give a short answer stating reported TGI for OC(c1nc2ccccc2[nH]1)C(O)C(O)C(O)c1nc2ccccc2[nH]1 (stereo not given) .
> 100 µM

Give a short answer stating reported TGI for COc1ncnc(NS(=O)(=O)c2ccc(N=C3C(=O)N(CN4CCN(c5c(F)cc6c(=O)c(C(=O)O)cn(C7CC7)c6c5OC)CC4C)c4ccc(Cl)cc43)cc2)c1OC (stereo not given) .
42.1 µM

Give a short answer stating reported TGI for Cc1cc(O)c(/C=N/C(=S)NCc2ccccc2)c(=O)o1 .
> 100 µM

Give a short answer stating reported TGI for O=C(Nc1ccc(Cl)cc1)c1cccc(NC2=C(Cl)C(=O)N(Cc3ccccc3)C2=O)c1 .
24.3 µM

----------
Parameter TGI: see the listing below.
test system: NCI-H226 lung; assay: NCI tumour cell line growth inhibition, 48 h

Give a short answer stating reported TGI for CN(C)c1ccc(S(=O)Nc2ccccc2)cc1 (stereo not given) .
> 100 µM

Give a short answer stating reported TGI for Cc1c(S(=O)(=O)c2ccccc2)c(N)n(CCN(C)C)c1C .
> 100 µM

Give a short answer stating reported TGI for CCCCCCOc1ccc(C(=O)NOC)cc1 .
> 100 µM

Give a short answer stating reported TGI for OCC#Cc1ccccc1C#Cc1ccccc1 .
29.4 µM

Give a short answer stating reported TGI for Cc1cc2c3c(nc4ccccc42)C(=O)c2ccccc2-c3n1 .
67 µM

In the following, a different compound is considered.
Give a short answer stating reported TGI for O=C1NCC2(CCN(CCCC3(c4ccc(F)cc4)OCCO3)CC2)N1c1ccccc1 .
> 100 µM

----------
Parameter TGI: see the listing below.
tested on: SK-OV-3 ovarian; test: NCI tumour cell line growth inhibition, 48 h

Answered examples (4):
Give a short answer stating reported TGI for CCOC(=O)c1nc2c(nc1C(=O)OCC)C(=O)c1ccccc1C2=O .
5.97 µM

Give a short answer stating reported TGI for CCCCCCN(CCCCCC)C(=O)Cc1c2n(c3ccccc13)Cc1ccccc1-2 .
> 100 µM

Give a short answer stating reported TGI for O=c1[nH]c(=O)n(C2OC(CO)C(O)C2O)c2nc(-c3ccc(-c4ccccc4)cc3)cnc12 (centres undefined) .
> 100 µM

Give a short answer stating reported TGI for CS(=O)c1ncc2c(n1)-c1ccccc1OC2 (centres undefined) .
> 100 µM

---
Give a short answer stating reported TGI for Cc1ccc(S(=O)(=O)Nc2ccccc2C(=O)c2ccc(C)c(C)c2)cc1 .
> 100 µM

Give a short answer stating reported TGI for CC[C@H](Nc1ncnc2nc[nH]c12)c1oc2ccccc2c(=O)c1-c1cccc(F)c1 .
> 100 µM

Give a short answer stating reported TGI for CC1=C[C@@H]2Cc3nc4cc(Cl)ccc4c(N)c3[C@H](C1)C2 .
24.3 µM

Give a short answer stating reported TGI for COc1cc(OC)cc(-c2cc(=O)c3c(OC)c(OC)c(OC)c(OC)c3o2)c1 .
54.2 µM

Give a short answer stating reported TGI for N=Nc1c(OC(=O)Nc2cccc(Cl)c2)[nH]c2ccccc12 .
21.2 µM

Give a short answer stating reported TGI for Cc1ccc2c(c1)C(=O)C1(Cc3ccccc3C1=O)C2 (centres undefined) .
> 100 µM

----------
tested on: HL-60(TB) leukemia; assay: NCI tumour cell line growth inhibition, 48 h
MEASURED_ATTRIBUTE: log10 TGI (log10 of the value in µM)
Lab note - TGI converted to log10 from values in µM.

Answered examples (2):
Give a short answer stating reported log10 TGI for Cc1cc(I)cc(CN(C)CCCN2CCCCC2)c1O .
1.47

Give a short answer stating reported log10 TGI for CN(C)c1ccc(C(=N/N=C2\C(=O)Nc3ccccc32)c2ccc(N(C)C)cc2)cc1 .
0.87

---
Give a short answer stating reported log10 TGI for Cc1cc(/C=C/c2ccc3cc(N(C)C)ccc3[n+]2C)c(C)n1-c1ccccc1 .
-0.45

Give a short answer stating reported log10 TGI for OCCCCCNCc1cc2cc3c(cc2c2cc(OCc4ccccc4)ccc12)OCO3 .
0.56

Give a short answer stating reported log10 TGI for O=C1c2cc3c(cc2-c2c1c1ccc(F)cc1c(=O)n2CCCNCCO)OCO3 .
-0.70

----------
tested on: BT-549 breast; assay: NCI tumour cell line growth inhibition, 48 h
Parameter GI50: see the listing below.

Give a short answer stating reported GI50 for Cc1cc2c(cc1Cl)SC(N(N(C)C)S(=O)(=O)c1ccc(Cl)cc1)=NS2(=O)=O .
19400 nM

---
Give a short answer stating reported GI50 for COc1cccc(-c2nc(-c3ccc(NC(=O)C(C)C)cc3)[nH]c2-c2ccnc(Br)c2)c1 .
2040 nM

Give a short answer stating reported GI50 for CCN(CC)c1ccc(-c2cc(-c3cc(OC)c(OC)c(OC)c3)nc(N3CCOCC3)c2C#N)cc1 .
480 nM

Give a short answer stating reported GI50 for COc1cc2c3c(n(C)c(=O)c2cc1OC)-c1cc2c(cc1/C3=C\CCN)OCO2 .
2130 nM

Give a short answer stating reported GI50 for COc1ccc([C@H]2[C@@H](F)C(=O)N2c2cc(OC)c(OC)c(OC)c2)cc1F .
49.8 nM

----------
system: K-562 leukemia; assay: NCI tumour cell line growth inhibition, 48 h; in the data active = GI50 below about 0.43 µM; inactive = the rest
Assign a class; possible classes are yes for active, no for inactive

# example entries with known answers
For Cc1cc(-c2ccc3nc(C4CCOCC4)n(CCOC(F)(F)F)c3c2)cn(C)c1=O , what call appears in the results of this test?
no

For O=C(CCc1nnc2sc(-c3ccc(Cl)cc3Cl)nn12)c1nc2ncccc2[nH]1 , what call appears in the results of this test?
no

For CCCCCCCC(=O)SCC/C=C/[C@@H]1CC(=O)NCc2cc(ccn2)C2=N[C@@](C)(CS2)C(=O)N[C@@H](C(C)C)C(=O)O1 , what call appears in the results of this test?
yes

For OCC#Cc1ccccc1C#Cc1ccccc1 , what call appears in the results of this test?
no

For COc1ccc(-c2nnc(COc3ccc(NC(=O)Nc4cc(C(F)(F)F)cc(C(F)(F)F)c4)cc3F)o2)cc1 , what call appears in the results of this test?
no

For O=C1c2cc3c(cc2-c2c1c1ccc(F)cc1c(=O)n2CCCNCCO)OCO3 , what call appears in the results of this test?
yes

For O=C(/C=C/c1ccc(Cl)cc1)c1ccc(Nc2ccnc3cc(Cl)ccc23)cc1 , what call appears in the results of this test?
no

For C=C1NC(=O)C(C(C)CC)NC(=O)C2CSCC(NC(=O)CCC(=O)O)C(=O)NC(Cc3ccccc3)C(=O)NC(C)C(=O)NC(CC(C)CC)C(=O)NC(C(=O)NC(Cc3ccccc3)C(=O)N3CCCC3C(=O)N2)C(C)OC(=O)C(CO)NC(=O)C(C(O)COC)N(C)C(=O)C(C(C)C)NC(=O)C(CC(C)CC)NC1=O (centres undefined) , what call appears in the results of this test?
yes

Continue with the next compound.
For CO[C@H]1/C=C(/C)CCC[C@H](C)[C@H](O)[C@@H](C)C(=O)C(C)(C)[C@@H](O)CC(=O)O[C@@H]1/C(C)=C/c1csc(C)n1 , what call appears in the results of this test?
yes

src = PubChem BioAssay (NCI)
